- TARGET_ENTITY: Serine/threonine-protein kinase TAO1 (Homo sapiens) (UniProt Q7L7X3)
- Sequence (Q7L7X3 whole entry): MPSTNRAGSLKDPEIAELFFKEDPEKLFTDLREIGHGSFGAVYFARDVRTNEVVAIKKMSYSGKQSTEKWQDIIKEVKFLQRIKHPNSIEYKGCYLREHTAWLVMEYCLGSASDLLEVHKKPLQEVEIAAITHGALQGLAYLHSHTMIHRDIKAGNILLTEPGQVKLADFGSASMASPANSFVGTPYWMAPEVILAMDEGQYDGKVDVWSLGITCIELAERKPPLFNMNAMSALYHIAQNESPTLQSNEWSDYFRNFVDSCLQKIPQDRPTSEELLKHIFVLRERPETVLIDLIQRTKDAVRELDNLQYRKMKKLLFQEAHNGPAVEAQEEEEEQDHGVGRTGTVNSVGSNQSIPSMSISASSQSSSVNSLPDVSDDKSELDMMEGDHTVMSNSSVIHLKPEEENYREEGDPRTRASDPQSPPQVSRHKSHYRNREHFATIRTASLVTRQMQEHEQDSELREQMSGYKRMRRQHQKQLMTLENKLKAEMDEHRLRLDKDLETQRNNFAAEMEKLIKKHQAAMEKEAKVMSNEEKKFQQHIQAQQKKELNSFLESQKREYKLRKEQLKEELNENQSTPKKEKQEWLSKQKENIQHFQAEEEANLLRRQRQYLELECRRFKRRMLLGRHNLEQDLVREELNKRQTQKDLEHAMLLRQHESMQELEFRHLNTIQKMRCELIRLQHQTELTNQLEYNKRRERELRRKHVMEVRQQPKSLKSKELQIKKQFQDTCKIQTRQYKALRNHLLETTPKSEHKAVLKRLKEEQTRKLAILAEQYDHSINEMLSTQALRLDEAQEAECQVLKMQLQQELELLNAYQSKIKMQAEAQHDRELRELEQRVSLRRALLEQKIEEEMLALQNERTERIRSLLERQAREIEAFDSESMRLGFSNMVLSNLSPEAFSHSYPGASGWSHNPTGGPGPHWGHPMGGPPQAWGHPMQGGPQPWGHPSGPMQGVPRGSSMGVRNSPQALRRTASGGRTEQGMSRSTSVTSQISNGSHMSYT
- CONDITION_CONTEXT: at 1 µM
For each record, write down the corresponding residual activity.
Express it in %; write the number only.

For the molecule `Cc1nc(-c2ccccc2)c(-c2ccncc2)o1` , give its reported residual activity. 103

For the molecule `N#CCCc1ccc2c(c1)-c1[nH]c3ccc([N+](=O)[O-])cc3c1CC(=O)N2` , give its reported residual activity. 58

For the molecule `Oc1ccc(-c2nc(-c3ccc(F)cc3)c(-c3ccncc3)[nH]2)cc1` , give its reported residual activity. 102

For the molecule `Ic1cccc(CSc2nnc(-c3ccncc3)o2)c1` , give its reported residual activity. 63

For the molecule `N#C/C(=C(\N)Sc1ccc(N)cc1)c1ccccc1C(F)(F)F` , give its reported residual activity. 89

For the molecule `CCN(CC)CCCCN1c2ccccc2Oc2ccc(Cl)cc21` , give its reported residual activity. 117

For the molecule `Oc1c2ccccc2c2c3c(cccc13)N=N2` , give its reported residual activity. 69

For the molecule `Nc1nc(Nc2ccc(S(N)(=O)=O)cc2)nn1C(=S)Nc1c(F)cccc1F` , give its reported residual activity. 0

For the molecule `Cn1nc2c3c(cccc31)C(=O)c1ccccc1-2` , give its reported residual activity. 94

For the molecule `O=c1c2ccccc2[nH]c(=S)n1CCN1CCC(=C(c2ccc(F)cc2)c2ccc(F)cc2)CC1` , give its reported residual activity. 109

For the molecule `O=c1cc(-c2cccc3c2Sc2ccccc2S3)oc(N2CCOCC2)c1` , give its reported residual activity. 107

For the molecule `CN(C)c1ccc(/C=C2\C(=O)Nc3ccccc32)cc1` , give its reported residual activity. 113

For the molecule `COc1cc2ncnc(N3CCN(C(=O)Nc4ccc(Oc5ccccc5)cc4)CC3)c2cc1OC` , give its reported residual activity. 94

For the molecule `O=C1NC(=O)c2c1c1c3ccccc3[nH]c1c1[nH]c3cc(Br)ccc3c21` , give its reported residual activity. 92

For the molecule `Cc1nc2cc3nc(-c4cccs4)cnc3cc2n1C` , give its reported residual activity. 111

For the molecule `Oc1ccc(Nc2nc(-c3ccc(Cl)cc3)cs2)cc1` , give its reported residual activity. 106

For the molecule `O=[N+]([O-])c1ccc(-c2nc(-c3ccc(F)cc3)c(-c3ccncc3)[nH]2)cc1` , give its reported residual activity. 97

For the molecule `CC[n+]1c(/C=C/N(C)c2ccccc2)n(-c2ccccc2)c2ccc(-c3nc4ccccc4s3)cc21` , give its reported residual activity. 93

For the molecule `CCN(CC)C(=O)c1ccc(Nc2nc(OCC3CCCCC3)c3nc[nH]c3n2)cc1` , give its reported residual activity. 52

For the molecule `Nc1ccc2ncnc(NCCc3ccc(Oc4ccccc4)cc3)c2c1` , give its reported residual activity. 103

For the molecule `COc1cc2ncnc(Nc3ccc(Oc4ccccc4)cc3)c2cc1OC` , give its reported residual activity. 106

For the molecule `CC(C)n1cnc2/c(=N/c3cccc(Cl)c3)nc(NCCO)[nH]c21` , give its reported residual activity. 87

For the molecule `CCOc1cc2ncnc(Nc3cccc(Br)c3)c2cc1OCC` , give its reported residual activity. 86

For the molecule `CC#CC(=O)Nc1cc2c(Nc3ccc(F)c(Cl)c3)ncnc2cn1` , give its reported residual activity. 104
